Provide the recorded GI50 for the entries that follow.
System: RPMI-8226
assayInfo: Cytotoxicity against human RPMI8226 cells after 48 hrs by sulforhodamine B assay
Assay type: functional
assayConditions: RPMI-8226, 48 h

Would you mind telling me what GI50 value was observed for "CCOc1cccc(/C=N/NC(=O)c2ccc(Nc3ccnc(C(F)(F)F)c3)cc2)c1O" ? 398 nM

Would you mind telling me what GI50 value was observed for "CCN(CC)c1ccc(/C=N/NC(=O)c2ccccc2Nc2ccnc(C(F)(F)F)c2)c(O)c1" ? 41.7 nM

Would you mind telling me what GI50 value was observed for "CCOc1cccc(/C=N/NC(=O)c2ccccc2Nc2ccnc(C(F)(F)F)c2)c1O" ? 251 nM

Would you mind telling me what GI50 value was observed for "COc1cccc(/C=N/NC(=O)c2ccccc2Nc2ccnc(C(F)(F)F)c2)c1O" ? 158 nM

Would you mind telling me what GI50 value was observed for "O=C(N/N=C/c1ccc(O)cc1O)c1ccc(Nc2ccnc(C(F)(F)F)c2)cc1" ? > 100000 nM

Would you mind telling me what GI50 value was observed for "O=C(Cc1ccc(Nc2ccnc(C(F)(F)F)c2)cc1)N/N=C/c1ccccc1O" ? 1000 nM

Would you mind telling me what GI50 value was observed for "CCOc1cccc(/C=N/NC(=O)Cc2ccc(Nc3ccnc(C(F)(F)F)c3)cc2)c1O" ? 501 nM

Would you mind telling me what GI50 value was observed for "O=C(N/N=C/c1ccc(O)cc1O)c1cccc(Nc2ccnc(C(F)(F)F)c2)c1" ? 3980 nM

Would you mind telling me what GI50 value was observed for "O=C(N/N=C/c1cc(Cl)ccc1O)c1ccccc1Nc1ccnc(C(F)(F)F)c1" ? 158 nM

====

Test system: MOLT-4
assayInfo: Cytotoxicity against human MOLT4 cells after 48 hrs by sulforhodamine B assay
Type: functional
assayConditions: MOLT-4, 48 h
Could you mark each record Met if its GI50 falls strictly under 0.5 µM, and Not met if it equals or exceeds it?

Is the reported GI50 for "O=C(N/N=C/c1cc(Cl)ccc1O)c1ccccc1Nc1ccnc(C(F)(F)F)c1" strictly below 0.5 µM? Met

Is the reported GI50 for "CCOc1cccc(/C=N/NC(=O)c2ccc(Nc3ccnc(C(F)(F)F)c3)cc2)c1O" strictly below 0.5 µM? Met

Is the reported GI50 for "O=C(N/N=C/c1ccc(O)cc1O)c1cccc(Nc2ccnc(C(F)(F)F)c2)c1" strictly below 0.5 µM? Not met

Is the reported GI50 for "CCN(CC)c1ccc(/C=N/NC(=O)c2cccc(Nc3ccnc(C(F)(F)F)c3)c2)c(O)c1" strictly below 0.5 µM? Met

Is the reported GI50 for "O=C(Cc1ccc(Nc2ccnc(C(F)(F)F)c2)cc1)N/N=C/c1ccccc1O" strictly below 0.5 µM? Not met

Is the reported GI50 for "CCOc1cccc(/C=N/NC(=O)c2cccc(Nc3ccnc(C(F)(F)F)c3)c2)c1O" strictly below 0.5 µM? Met

Is the reported GI50 for "CCN(CC)c1ccc(/C=N/NC(=O)c2ccccc2Nc2ccnc(C(F)(F)F)c2)c(O)c1" strictly below 0.5 µM? Met

====

System: HT-29
assayInfo: Cytotoxicity against human HT-29 cells after 48 hrs by sulforhodamine B assay
Format: functional
assayConditions: HT-29, 48 h
endpointLabel: GI50 (nM)
Give a bare numeral; the unit nM is implied.

Fill in the recorded GI50 for this compound, with HT-29 as test system: "CCN(CC)c1ccc(/C=N/NC(=O)Cc2ccc(Nc3ccnc(C(F)(F)F)c3)cc2)c(O)c1" 676

Fill in the recorded GI50 for this compound, with HT-29 as test system: "CCN(CC)c1ccc(/C=N/NC(=O)c2ccc(Nc3ccnc(C(F)(F)F)c3)cc2)c(O)c1" 282

Fill in the recorded GI50 for this compound, with HT-29 as test system: "CCN(CC)c1ccc(/C=N/NC(=O)c2ccccc2Nc2ccnc(C(F)(F)F)c2)c(O)c1" 347

Fill in the recorded GI50 for this compound, with HT-29 as test system: "CCN(CC)c1ccc(/C=N/NC(=O)c2cccc(Nc3ccnc(C(F)(F)F)c3)c2)c(O)c1" 339

====

Provide the recorded GI50 for the entries that follow.
System: BT-549
assayInfo: Cytotoxicity against human BT549 cells after 48 hrs by sulforhodamine B assay
Assay type: functional
assayConditions: BT-549, 48 h

Would you mind telling me what GI50 value was observed for "CCN(CC)c1ccc(/C=N/NC(=O)Cc2ccc(Nc3ccnc(C(F)(F)F)c3)cc2)c(O)c1" ? 1350 nM

Would you mind telling me what GI50 value was observed for "CCOc1cccc(/C=N/NC(=O)c2ccc(Nc3ccnc(C(F)(F)F)c3)cc2)c1O" ? 1580 nM

Would you mind telling me what GI50 value was observed for "O=C(Cc1ccc(Nc2ccnc(C(F)(F)F)c2)cc1)N/N=C/c1ccccc1O" ? 2510 nM

Would you mind telling me what GI50 value was observed for "O=C(N/N=C/c1ccc(O)cc1O)c1cccc(Nc2ccnc(C(F)(F)F)c2)c1" ? 631 nM

Would you mind telling me what GI50 value was observed for "CCOc1cccc(/C=N/NC(=O)c2ccccc2Nc2ccnc(C(F)(F)F)c2)c1O" ? 398 nM

Would you mind telling me what GI50 value was observed for "CCN(CC)c1ccc(/C=N/NC(=O)c2cccc(Nc3ccnc(C(F)(F)F)c3)c2)c(O)c1" ? 501 nM

Would you mind telling me what GI50 value was observed for "COc1cccc(/C=N/NC(=O)c2ccccc2Nc2ccnc(C(F)(F)F)c2)c1O" ? 398 nM

Would you mind telling me what GI50 value was observed for "CCN(CC)c1ccc(/C=N/NC(=O)c2ccccc2Nc2ccnc(C(F)(F)F)c2)c(O)c1" ? 347 nM

Would you mind telling me what GI50 value was observed for "COc1ccc(C(=O)N/N=C/c2ccc(O)cc2O)cc1Nc1ccnc(C(F)(F)F)c1" ? 501 nM

Would you mind telling me what GI50 value was observed for "CCOc1cccc(/C=N/NC(=O)c2cccc(Nc3ccnc(C(F)(F)F)c3)c2)c1O" ? 1580 nM

Would you mind telling me what GI50 value was observed for "O=C(N/N=C/c1cc(Cl)ccc1O)c1ccccc1Nc1ccnc(C(F)(F)F)c1" ? 794 nM

Would you mind telling me what GI50 value was observed for "CCN(CC)c1ccc(/C=N/NC(=O)c2ccc(Nc3ccnc(C(F)(F)F)c3)cc2)c(O)c1" ? 501 nM

Would you mind telling me what GI50 value was observed for "O=C(N/N=C/c1ccc(O)cc1O)c1ccc(Nc2ccnc(C(F)(F)F)c2)cc1" ? 10 nM

Would you mind telling me what GI50 value was observed for "O=C(N/N=C/c1ccccc1O)c1ccccc1Nc1ccnc(C(F)(F)F)c1" ? 631 nM

Would you mind telling me what GI50 value was observed for "CCOc1cccc(/C=N/NC(=O)Cc2ccc(Nc3ccnc(C(F)(F)F)c3)cc2)c1O" ? 2510 nM

====

Tested on: RPMI-8226
assayInfo: Cytotoxicity against human RPMI8226 cells after 48 hrs by sulforhodamine B assay
Type: functional
assayConditions: RPMI-8226, 48 h
endpointLabel: GI50
In your response, put the unit directly after the numeric value.

Would you mind telling me what GI50 value was observed for "CCN(CC)c1ccc(/C=N/NC(=O)c2cccc(Nc3ccnc(C(F)(F)F)c3)c2)c(O)c1" ? 158 nM

Would you mind telling me what GI50 value was observed for "COc1ccc(C(=O)N/N=C/c2ccc(O)cc2O)cc1Nc1ccnc(C(F)(F)F)c1" ? 2510 nM

Would you mind telling me what GI50 value was observed for "CCOc1cccc(/C=N/NC(=O)c2cccc(Nc3ccnc(C(F)(F)F)c3)c2)c1O" ? 2000 nM

Would you mind telling me what GI50 value was observed for "CCN(CC)c1ccc(/C=N/NC(=O)c2ccc(Nc3ccnc(C(F)(F)F)c3)cc2)c(O)c1" ? 126 nM

Would you mind telling me what GI50 value was observed for "O=C(N/N=C/c1ccccc1O)c1ccccc1Nc1ccnc(C(F)(F)F)c1" ? 200 nM

====

Test system: PC-3
assayInfo: Cytotoxicity against human PC3 cells after 48 hrs by sulforhodamine B assay
Assay type: functional
assayConditions: PC-3, 48 h
Provide the recorded log10(GI50) for the entries that follow.
Hello, just confirming the data are log10 of GI50 with units of nM.

Would you mind telling me what log10(GI50) value was observed for "CCOc1cccc(/C=N/NC(=O)c2cccc(Nc3ccnc(C(F)(F)F)c3)c2)c1O" ? 3.00

Would you mind telling me what log10(GI50) value was observed for "O=C(N/N=C/c1ccc(O)cc1O)c1ccc(Nc2ccnc(C(F)(F)F)c2)cc1" ? 4.30

Would you mind telling me what log10(GI50) value was observed for "CCN(CC)c1ccc(/C=N/NC(=O)c2cccc(Nc3ccnc(C(F)(F)F)c3)c2)c(O)c1" ? 2.87

Would you mind telling me what log10(GI50) value was observed for "COc1ccc(C(=O)N/N=C/c2ccc(O)cc2O)cc1Nc1ccnc(C(F)(F)F)c1" ? 2.80

Would you mind telling me what log10(GI50) value was observed for "CCOc1cccc(/C=N/NC(=O)c2ccc(Nc3ccnc(C(F)(F)F)c3)cc2)c1O" ? 2.60

Would you mind telling me what log10(GI50) value was observed for "COc1cccc(/C=N/NC(=O)c2ccccc2Nc2ccnc(C(F)(F)F)c2)c1O" ? 2.30

Would you mind telling me what log10(GI50) value was observed for "O=C(N/N=C/c1ccccc1O)c1ccccc1Nc1ccnc(C(F)(F)F)c1" ? 2.10

Would you mind telling me what log10(GI50) value was observed for "O=C(N/N=C/c1cc(Cl)ccc1O)c1ccccc1Nc1ccnc(C(F)(F)F)c1" ? 2.80

Would you mind telling me what log10(GI50) value was observed for "CCN(CC)c1ccc(/C=N/NC(=O)c2ccccc2Nc2ccnc(C(F)(F)F)c2)c(O)c1" ? 2.42
